test: Human liver microsome intrinsic clearance; format: in vitro ADME; conditions: apparent intrinsic clearance, scaled
Documented HLM Clint across a set of compounds
Metric: HLM Clint (mL min^–1 kg^–1)

INSERT INTO measurements (compound, assay_result) VALUES
  ('Cc1ccc(-c2ncc3c(n2)N2CCOC[C@@]2(C)C(=O)N3[C@H]2CC[C@@H](O)CC2)c2cc[nH]c12 [15c]', 8),
  ('Cc1cccc2c(-c3ncc4c(n3)N3CCOC[C@@]3(C)C(=O)N4[C@H]3CC[C@@H](O)CC3)c[nH]c12 [15d]', 7),
  ('Cc1cccc2c(-c3ncc4c(n3)N3CCOC[C@@]3(C)C(=O)N4C3(CCO)CC3)c[nH]c12 [15e]', 6),
  ('C[C@@]12COCCN1c1nc(-c3cnc4[nH]ccc4c3)ncc1N(C1CCOCC1)C2=O', 6),
  ('Cc1cccc2c(-c3ncc4c(n3)N3CCOC[C@@]3(C)C(=O)N4[C@H]3CC[C@H](O)CC3)c[nH]c12 [15b]', 7),
  ('C[C@@]12COCCN1c1nc(-c3cnc4[nH]ccc4c3)ncc1N(C1CCN(S(C)(=O)=O)CC1)C2=O [13e]', 6),
  ('COCCCN1C(=O)[C@]2(C)COCCN2c2nc(-c3cnc4[nH]ccc4c3)ncc21 [13b]', 32),
  ('C[C@@]12COCCN1c1nc(-c3cnc4[nH]ccc4c3)ncc1N(CCCO)C2=O [13c]', 9);
